target: Calcium-activated potassium channel subunit alpha-1 (Homo sapiens) + Leucine-rich repeat-containing protein 26 (Homo sapiens) (UniProt Q12791+Q2I0M4); assay: modulators of BK channel variants, profiling panel, selectivity assay, cell-based, U2OS BacMam, thallium flux, beta subunits (AID 1259406); conditions: F380Y/Slo1WT/gamma1, at 30 µM;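 also: initial slope of Thallos dye fluorescence rise after thallium is added; log ratio against the mean of 0.3% DMSO vehicle wells on the same plate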
Sequence (Q2I0M4 whole entry, looked up, one chain of several): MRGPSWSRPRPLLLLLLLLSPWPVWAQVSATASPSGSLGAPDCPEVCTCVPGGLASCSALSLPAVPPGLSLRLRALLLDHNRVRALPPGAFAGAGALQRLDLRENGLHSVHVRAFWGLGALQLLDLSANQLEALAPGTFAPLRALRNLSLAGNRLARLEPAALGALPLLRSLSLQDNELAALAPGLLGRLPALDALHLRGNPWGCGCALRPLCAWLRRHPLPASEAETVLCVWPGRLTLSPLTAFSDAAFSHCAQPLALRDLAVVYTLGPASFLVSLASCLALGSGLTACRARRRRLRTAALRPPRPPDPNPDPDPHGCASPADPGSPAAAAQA
# maps each entry to its log fold change Tl+ flux
Write the value as a bare number.

COc1ccc(C(CN(C)C)C2(O)CCCCC2)cc1 (centres undefined) :: -0.00535
CN[C@@H]1C[C@@H](c2ccc(Cl)c(Cl)c2)c2ccccc21 :: 0.0738
CCC1(c2ccc(N)cc2)CCC(=O)NC1=O (centres undefined) :: -0.0199

Here's the next entry for you.
Prompt line: Specify measured log fold change Tl+ flux for CCOC(=O)c1cncn1C(C)c1ccccc1 (centres undefined) .
Response line: -0.00742

* * *

experiment: ovarian cancer cell viability with rucaparib, profiling panel, oncology-focused library, rucaparib conditional (AID 1508598); details: patient-derived ovarian cancer cells, CellTiter-Glo viability, 144 h; at 0.0195 µM; OCI-P5x cells; with rucaparib 20 µM; stronger effect = lower value; 100% = cells with rucaparib alone
QUANTITY: viability (%)
Numbers only here, please. The scale is %.

Recorded results for 3 compounds are shown here.
Cc1c(N)nc([C@H](CC(N)=O)NC[C@@H](N)C(N)=O)nc1C(=O)N[C@H](C(=O)N[C@@H](C)[C@H](O)[C@@H](C)C(=O)N[C@@H](C(=O)NCCc1nc(-c2nc(C(=O)NCCC[S+](C)C)cs2)cs1)[C@@H](C)O)C(O[C@H]1O[C@H](CO)[C@H](O)[C@@H](O)[C@H]1O[C@H]1O[C@H](CO)[C@@H](O)[C@H](OC(N)=O)[C@@H]1O)c1cnc[nH]1 (some centres undefined) :: 88.2
O=S(=O)(CC1CS1)c1ccc(Oc2ccccc2)cc1 (centres undefined) :: 91
Cc1sc2c(c1C)C(c1ccc(Cl)cc1)=N[C@@H](CC(N)=O)c1nnc(C)n1-2 :: 82.4

Now for another entry.
Prompt line: Give the reported value of viability for this record: "C/C(=C\c1csc(C)n1)[C@H]1C[C@@H]2O[C@@H]2CCC[C@H](C)[C@H](O)[C@@H](C)C(=O)C(C)(C)[C@H](O)CC(=O)O1"
Response line: 53.1

* * *

assay: circadian clock period modulators, cell-based, LOPAC library, luminescence reporter (AID 2774); settings: circadian reporter cells, at 7 µM, actives lie on both sides;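 also: values are relative to mean of DMSO wells on each plate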
Activity calls are given as the source filed them. How the calls were made is not given here.
Reported period change by item:

CCN(CC)C(=O)N[C@H]1C=C2c3cccc4[nH]cc(c34)C[C@H]2N(C)C1 :: 0.33 h (inactive)

Prompt line: Indicate its recorded period change; the compound in question is "c1ccc2c(c1)[I+]c1ccccc1-2"
Response line: -1.22 h (inactive)

* * *

test: inhibitors of mitochondrial cytochrome c release, biochemical, purified mitochondria (AID 1603); conditions: stronger effect = lower value;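 also: mouse liver mitochondria challenged with calcium chloride; signal normalized to the plate average as 100%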
Just a reminder that ties go to Not fulfilled: only cytochrome c release ratio strictly below 1 counts as Fulfilled.

CC(=O)Nc1cc([As](=O)(O)O)ccc1O :: Not fulfilled
CC(C)[N+](C)(CCC(C(N)=O)(c1ccccc1)c1ccccc1)C(C)C :: Not fulfilled

Prompt line: Hello, I'm reviewing records and need to know if cytochrome c release ratio of "O=[N+]([O-])O[C@H]1CO[C@H]2[C@@H]1OC[C@H]2O[N+](=O)[O-]" is below 1. Could you check?
Response line: Fulfilled

Prompt line: Does this compound meet the criterion cytochrome c release ratio < 1? "COC(=O)C1=CCCN(C)C1"
Response line: Fulfilled

Prompt line: Report whether reported cytochrome c release ratio is lower than 1 (strictly) for CC(=O)OCC1=C(C(=O)O)N2C(=O)[C@@H](NC(=O)CCCC(N)C(=O)O)C2SC1 (some centres not stated)
Response line: Not fulfilled

Prompt line: Problem: For the compound "CC[C@@H](CO)NC(=O)[C@@H]1C=C2c3cccc4[nH]cc(c34)C[C@H]2N(C)C1" , is cytochrome c release ratio under 1?
Response line: Fulfilled

Prompt line: Please check: cytochrome c release ratio for NCC(CC(=O)O)c1ccc(Cl)cc1 (configuration not stated) , strictly under 1 or not?
Response line: Fulfilled

* * *

experiment: CellTiter-Glo luminescent readout of SW480 viability loss, NPC library primary (AID 1117343); conditions: CellTiter-Glo luminescence; at 20 µM (top of the series)
Active and inactive are the calls of the source.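 How the source made its calls: active means compounds that lower viability of the colon cancer cells in the luminescence readout, with no numeric limit stated; inactive means the rest.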
Please reply with one of these outcomes: active, inactive

Prompt line: Record request — test call for "COc1ccccc1N1CCNCC1"
Response line: active

Prompt line: What was the test verdict on "COc1ccc(C(=O)N2CCCC2=O)cc1" ?
Response line: inactive

Prompt line: Can you look up the reported call for CCCC(C)(COC(N)=O)COC(=O)NC(C)C (stereo unspecified) for me?
Response line: inactive

Prompt line: Dear all, I need the recorded test outcome for CCC1(c2cccc(O)c2)CCCCN(C)C1 (stereo unspecified) , thank you.
Response line: active

Prompt line: Which outcome did this test record for the compound "NC(=O)CN1CCCC1=O" ?
Response line: inactive

Prompt line: Could you kindly confirm the outcome this assay logged for "O=C(CCCCl)c1ccc(F)cc1" ?
Response line: inactive

Prompt line: Please state the recorded outcome for this compound: CCOC(=O)CC(SP(=S)(OC)OC)C(=O)OCC (stereo unspecified)
Response line: inactive

* * *

remaining activity for assorted compounds
system: Aerobactin synthetase IucA (Klebsiella pneumoniae, hypervirulent); test: IucA enzyme inhibition, biochemical, LOPAC library, absorbance readout (AID 1346212); conditions: IucA enzyme assay, absorbance (OD) readout; stronger effect = lower value;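 tested at 8 µM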;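 also: 100% = no compound wells and 0% = no enzyme wells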
Respond numerically; units are % and should not be typed.

Example cases with answers are listed next.
NCC(CP(=O)(O)O)c1ccc(Cl)cc1 (configuration not stated) :: 107
CN(C)C(N)=NCCC[C@H](N)C(=O)O :: 97.3
COC1(C2=NCCN2)COc2ccccc2O1 (configuration not stated) :: 105

Prompt line: Please report the measured remaining activity for "O=c1onc2cnc3ccccc3n12"
Response line: 112

Prompt line: Find the measured remaining activity of "NC(N)=N/N=C/c1c(Cl)cccc1Cl" and report it.
Response line: 87.5

Prompt line: Tell us which remaining activity value is on record for "N=C(N)SCCN"
Response line: 109

Prompt line: Answer with the recorded remaining activity for the compound listed here: "O=C(CCCN1CCC(O)(c2cccc(C(F)(F)F)c2)CC1)c1ccc(F)cc1"
Response line: 101

Prompt line: Provide one value: measured remaining activity of "C#C[C@]1(O)CC[C@H]2[C@@H]3CCC4=Cc5nc6nc7ccccc7n6cc5C[C@]4(C)[C@H]3CC[C@@]21C"
Response line: 123

Prompt line: Return remaining activity for the following compound: "Cc1[nH]c(=O)c(C#N)cc1-c1ccncc1"
Response line: 123

Prompt line: Look up remaining activity of "Cn1c(=O)c2c(nc(/C=C/c3cccc(Cl)c3)n2C)n(C)c1=O" and report it.
Response line: 88.1

Prompt line: Provide remaining activity value for the following compound: "CC(C)NC[C@H](O)COc1ccc(CC(N)=O)cc1"
Response line: 115

Prompt line: # return recorded remaining activity for input CCc1cccc2c3c([nH]c12)C(CC)(CC(=O)O)OCC3 (configuration not stated)
Response line: 116

* * *

Listed here are compounds together with their documented period change.
assay: circadian clock period modulators, cell-based, LOPAC library, luminescence reporter (AID 2774); details: circadian reporter cells, at 7 µM, actives lie on both sides;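 also: values are relative to mean of DMSO wells on each plate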
Calls of active or inactive are those of the source. No rule for the calls is given here.

CC(Cc1ccc(O)cc1)NCC(O)c1cc(O)cc(O)c1 (stereo unspecified) :: 0.005 h (inactive)
COC[C@H]1OC(=O)c2coc3c2[C@@]1(C)C1=C(C3=O)C2CCC(=O)[C@@]2(C)C[C@H]1OC(C)=O (stereo partly specified) :: -0.52 h (inactive)
CN1CCN(C(=O)OC2c3nccnc3C(=O)N2c2ccc(Cl)cn2)CC1 (stereo unspecified) :: -0.19 h (inactive)

Prompt line: Please list period change recorded for the compound "COc1ccc(CCN)cc1O"
Response line: 0.08 h (inactive)

Prompt line: # return recorded period change for input C=CCN1CC[C@]23CCCCC2[C@H]1Cc1ccc(O)cc13 (stereo partly specified)
Response line: 0.175 h (inactive)

Prompt line: Identify the reported period change for the following entry. CC(N)C(=O)OC(C)(C)Cc1ccc(Cl)cc1 (stereo unspecified)
Response line: -0.005 h (inactive)

* * *

assay: ovarian cancer cell viability with rucaparib, profiling panel, oncology-focused library, rucaparib conditional (AID 1508598); settings: patient-derived ovarian cancer cells, CellTiter-Glo viability, 144 h; at 5 µM; OCI-C5x cells; without rucaparib
The source made the active and inactive calls.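 The calls were made as follows: active = normalized viability below 100% at a tested concentration; inactive = the rest.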
// allowed return values: class 1 for active, class 0 for inactive

Prompt line: Kindly provide the recorded test outcome for the following compound: Cc1c(N)nc([C@H](CC(N)=O)NC[C@@H](N)C(N)=O)nc1C(=O)N[C@H](C(=O)N[C@@H](C)[C@H](O)[C@@H](C)C(=O)N[C@@H](C(=O)NCCc1nc(-c2nc(C(=O)NCCC[S+](C)C)cs2)cs1)[C@@H](C)O)C(O[C@H]1O[C@H](CO)[C@H](O)[C@@H](O)[C@H]1O[C@H]1O[C@H](CO)[C@@H](O)[C@H](OC(N)=O)[C@@H]1O)c1cnc[nH]1 (stereo partly specified)
Response line: class 1

Prompt line: Dear all, I need the recorded test outcome for "C/C(=C\c1csc(C)n1)[C@H]1C[C@@H]2O[C@]2(C)CCC[C@H](C)[C@H](O)[C@@H](C)C(=O)C(C)(C)[C@H](O)CC(=O)O1" , thank you.
Response line: class 1

Prompt line: Per the assay record, what outcome was assigned to "Cn1cc(C2=C(c3cn(C4CCN(Cc5ccccn5)CC4)c4ccccc34)C(=O)NC2=O)c2ccccc21" ?
Response line: class 0

Prompt line: How was "CC(C)[C@@]12O[C@@H]1[C@@H]1O[C@]13[C@]1(O[C@@H]1C[C@@H]1C4=C(CC[C@@]13C)C(=O)OC4)[C@@H]2O" classified in this test?
Response line: class 1

Prompt line: How was "Cc1sc2c(c1C)C(c1ccc(Cl)cc1)=N[C@@H](CC(N)=O)c1nnc(C)n1-2" classified in this test?
Response line: class 1

Prompt line: Could you check what this test reported for "Cn1c(CCCC(=O)O)nc2cc(N(CCCl)CCCl)ccc21" ?
Response line: class 1
